Where these numbers come from: paper PMC4336329

# system: human ether-à-go-go-related gene (hERG) potassium channel (human);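 also: peak tail current of the secondary pulse compared with the same well before compound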
# Sequence (Q12809 whole entry, looked up): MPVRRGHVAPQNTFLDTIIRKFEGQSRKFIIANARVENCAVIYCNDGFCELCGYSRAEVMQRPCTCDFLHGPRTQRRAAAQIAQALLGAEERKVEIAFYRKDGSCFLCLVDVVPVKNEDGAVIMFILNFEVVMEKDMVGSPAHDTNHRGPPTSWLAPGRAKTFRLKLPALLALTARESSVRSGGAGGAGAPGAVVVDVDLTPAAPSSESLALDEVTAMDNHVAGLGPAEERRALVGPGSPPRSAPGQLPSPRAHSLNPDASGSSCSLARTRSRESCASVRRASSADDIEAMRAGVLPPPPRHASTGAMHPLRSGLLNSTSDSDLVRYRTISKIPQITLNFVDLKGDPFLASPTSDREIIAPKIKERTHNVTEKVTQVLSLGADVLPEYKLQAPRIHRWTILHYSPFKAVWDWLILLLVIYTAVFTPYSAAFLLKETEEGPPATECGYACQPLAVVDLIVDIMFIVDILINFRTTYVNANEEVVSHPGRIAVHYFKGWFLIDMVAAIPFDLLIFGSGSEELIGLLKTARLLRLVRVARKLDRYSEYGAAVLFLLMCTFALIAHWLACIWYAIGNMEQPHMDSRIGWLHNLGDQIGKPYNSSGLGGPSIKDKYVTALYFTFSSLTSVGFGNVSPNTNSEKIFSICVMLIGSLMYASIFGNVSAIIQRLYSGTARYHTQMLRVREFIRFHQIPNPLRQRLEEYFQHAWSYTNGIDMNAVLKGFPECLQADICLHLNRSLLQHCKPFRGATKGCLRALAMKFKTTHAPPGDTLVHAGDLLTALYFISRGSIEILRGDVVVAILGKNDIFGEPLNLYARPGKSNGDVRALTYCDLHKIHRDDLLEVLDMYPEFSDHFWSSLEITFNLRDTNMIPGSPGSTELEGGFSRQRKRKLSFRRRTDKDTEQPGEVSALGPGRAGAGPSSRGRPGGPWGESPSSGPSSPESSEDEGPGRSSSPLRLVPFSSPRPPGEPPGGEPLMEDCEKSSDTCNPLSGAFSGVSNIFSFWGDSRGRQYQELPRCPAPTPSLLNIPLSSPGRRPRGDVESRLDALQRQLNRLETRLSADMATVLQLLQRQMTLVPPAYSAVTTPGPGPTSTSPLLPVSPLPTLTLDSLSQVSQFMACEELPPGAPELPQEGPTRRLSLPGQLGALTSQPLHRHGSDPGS
# test.summary: primary screen, population patch clamp on CHO cells stably expressing hERG; higher = less effect of the substance
Out of some 310,000 compounds screened, about 14,000 (4.5%) showed an effect of 50% or more. Effects have a minus sign here. The sample as a whole holds a higher share of strong results than the screen did.
measurement.name: hERG current change (%, negative = inhibition) at 10uM
Param answer (str): number followed by unit.

Reported hERG current change (%, negative = inhibition) at 10uM for COc1cccc(N2CCN(C(=S)Nc3ccc(F)cc3)CC2)c1 was 16.1%

Looking up O=S(=O)(c1ccc2c(c1)CCN2)N1CCOCC1 , I found its hERG current change (%, negative = inhibition) at 10uM recorded as -2.2%

Recorded hERG current change (%, negative = inhibition) at 10uM (compound CCC(=O)NC(=S)NNC(=O)COc1ccc(Br)cc1 ): 14.4%

// hERG current change (%, negative = inhibition) at 10uM value for COc1ccc(C(=O)Nc2ccc(Cl)cc2F)cc1S(=O)(=O)N1CCCC1 : -48.1%

// COc1ccc(S(=O)(=O)Nc2ccccc2C)cc1 : hERG current change (%, negative = inhibition) at 10uM value = 0.614%

Record summary for CCOC(=O)N1CCN(Cc2nc(N)nc(Nc3ccccc3C)n2)CC1 : reported hERG current change (%, negative = inhibition) at 10uM = -14.9%

Lookup result for COc1ccc(OC)c(C2N(c3cc(C)on3)C(=O)C3CCCN32)c1 (stereo not shown) ; measured hERG current change (%, negative = inhibition) at 10uM: 10.8%

CC(=O)N1CC(C)Sc2ccc(S(=O)(=O)NCc3ccccc3Cl)cc21 (stereo not shown) yielded hERG current change (%, negative = inhibition) at 10uM of -8.78%

According to the records, this compound CC/C(=N\Nc1ccc([N+](=O)[O-])cc1[N+](=O)[O-])c1ccc(O)cc1 displays hERG current change (%, negative = inhibition) at 10uM of 21.7%

Record COc1ccc(C2CC(c3ccc(C)o3)=NN2C(C)=O)cc1 (stereo not shown) , field hERG current change (%, negative = inhibition) at 10uM: 7.14%

Measured hERG current change (%, negative = inhibition) at 10uM, O=C(C1COc2ccccc2O1)N1CCN(c2ccccc2O)CC1 (stereo not shown) : -12.5%

Data point: O=C(CN(CCc1ccccc1)S(=O)(=O)c1ccc(Cl)cc1)N/N=C/c1ccccc1C(=O)O ; hERG current change (%, negative = inhibition) at 10uM = 14.6%

Lab book: hERG current change (%, negative = inhibition) at 10uM of Cc1ccc2c(c1)sc(-c1ccc(N(C)C)cc1)[n+]2C.[I-] noted as -60%

Given item CCOC(=O)N1CCN(Cc2nc(-c3ccc(OC)cc3)no2)CC1 , the value recorded as its hERG current change (%, negative = inhibition) at 10uM is -4.74%

hERG current change (%, negative = inhibition) at 10uM reported for this compound COc1ccc(C2=NO[C@@H]3C(=O)N(Cc4ccccc4)C(=O)[C@H]23)cc1OC : -1.95%

Entry COCCN1CN=C(NS(=O)(=O)c2ccc(C)cc2)NC1 ; hERG current change (%, negative = inhibition) at 10uM = 16.3%

----------
# system: human ether-à-go-go-related gene (hERG) potassium channel (human);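 also: peak tail current of the secondary pulse compared with the same well before compound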
# test.summary: primary screen, population patch clamp on CHO cells stably expressing hERG; higher = less effect of the substance
Hit rate of the full screen: of about 310,000 compounds, about 14,000 (4.5%) showed an effect of 50% or more. Effects have a minus sign here. Only a selection was taken, and strong results are over-represented in it overall.
Give measured hERG current change (%, negative = inhibition) at 10uM for each item. Keep answers brief.

Just so you know, measured hERG current change (%, negative = inhibition) at 10uM for Cc1cccn2c(=O)c3cc(C#N)c(=NC(=O)c4cccnc4)n(CC4CCCO4)c3nc12 (stereo not drawn) came out at -51.1%

Recorded hERG current change (%, negative = inhibition) at 10uM (compound COc1ccccc1CC(=O)NCCc1c[nH]c2ccccc12 ): 5.81%

# hERG current change (%, negative = inhibition) at 10uM of Cc1cc(Cl)ccc1C(=O)C1CCCN(C(=O)CCN2CCCO2)C1 (stereo not drawn) = -1.54%

For CCCCn1c(=NC(C)=O)c(C#N)cc2c(=O)n3cccc(C)c3nc21 the compound record lists hERG current change (%, negative = inhibition) at 10uM as -31%

hERG current change (%, negative = inhibition) at 10uM reported for this compound CN1CCCN(C(=O)c2ccc(Cl)cc2)CC1 : 5.68%

Input CCN(CC(=O)NCc1cccs1)C(=O)c1cccc(S(=O)(=O)NC)c1 . Output hERG current change (%, negative = inhibition) at 10uM: -12.2%
